- assayed_system: TYK2 (aa 871-1187, catalytic domain, GST-tag) (Homo sapiens)
- Construct: JAK1 (aa 850-1154) and TYK2 (aa 871-1187) are expressed with an N-terminally fused GST-tag; GST (N); purchased Carna Biosciences, Inc; host or cells: baculovirus expression system
- Sequence (P29597 871-1187): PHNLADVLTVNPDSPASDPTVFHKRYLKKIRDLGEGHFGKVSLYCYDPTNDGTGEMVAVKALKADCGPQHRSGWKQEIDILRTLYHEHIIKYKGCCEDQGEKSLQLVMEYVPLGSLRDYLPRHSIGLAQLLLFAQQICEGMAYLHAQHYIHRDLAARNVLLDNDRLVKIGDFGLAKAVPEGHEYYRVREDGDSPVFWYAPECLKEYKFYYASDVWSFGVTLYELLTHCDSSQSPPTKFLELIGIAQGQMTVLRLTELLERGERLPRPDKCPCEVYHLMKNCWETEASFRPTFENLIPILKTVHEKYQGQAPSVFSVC
- experiment_description: JAK kinase assay (HTRF, phosphorylation of TK substrate-biotin), TYK2
- Assay type: biochemical
- particulars: HTRF assay, ATP at Km (13 μM); read-out: TYK2 kinase inhibitory activity (EC50 indicator)
experimental_readout: EC50

Here's what some known entries look like.
1. N#Cc1ccccc1CC(=O)N1[C@@H]2CC[C@@H]1CN(c1ncnc3[nH]ccc13)C2 [Example 250]: > 500 nM
2. N#Cc1cccc(CC(=O)N2CCN(c3nc(N)nc4[nH]ccc34)CC23CC3)c1 [Example 311]: > 500 nM
3. COCCNS(=O)(=O)c1ccc(C(=O)N2CCN(c3ncnc4[nH]ccc34)CC23CC3)cc1 [Example 396]: 100 to 500 nM
4. N#CC1(C(=O)N2C[C@@H]3C[C@H]2CN3c2ncnc3[nH]ccc23)CC1 [Example 270]: > 500 nM
5. N#CCCC(=O)N1CCN(c2nc(N)nc3[nH]ccc23)CC12CC2 [Example 313]: 100 to 500 nM
6. NS(=O)(=O)c1ccc(SCC(=O)N2CCN(c3ncnc4[nH]ccc34)CC23CC3)cc1 [Example 404]: < 100 nM

What EC50 value was documented for this compound, CCCNS(=O)(=O)c1ccc(C(=O)N2CCN(c3ncnc4[nH]ccc34)CC23CC3)cc1 [Example 377] ? 100 to 500 nM

Item N#Cc1ccc(CC(=O)N2C[C@@H]3C[C@H]2CN3c2ncnc3[nH]ccc23)cc1 [Example 278] has what recorded EC50? > 500 nM
